Ref: patent US20040048327A1

Target: T1, schistosome legumain SmAE (Schistosoma mansoni asparaginyl endopeptidase) (Schistosoma mansoni, UniProt P09841 32-291)
T1 sequence (looked up): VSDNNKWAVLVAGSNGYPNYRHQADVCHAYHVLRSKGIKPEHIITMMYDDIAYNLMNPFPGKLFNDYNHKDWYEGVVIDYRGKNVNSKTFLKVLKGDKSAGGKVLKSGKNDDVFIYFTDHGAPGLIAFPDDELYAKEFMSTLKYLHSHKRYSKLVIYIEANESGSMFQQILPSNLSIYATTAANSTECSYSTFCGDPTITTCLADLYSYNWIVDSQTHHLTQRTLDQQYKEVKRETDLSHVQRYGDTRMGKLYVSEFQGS
Test: cell-based or functional assay
Numbered stars: 1 amine (or outer) side, 2 acyl side, 3 side chain; on linkers, the order of the positions; unused ones are H or OH. Square brackets hold non-standard residues; d marks the D form. * marks the point of attachment. AAsn = aza-asparagine, NC(=O)CN(N[*:1])C(=O)[*:2]; azaAsn = NC(=O)CN(N[*:1])C(=O)[*:2]; (S,S)‑EP = not defined here; Cbz = O=C(OCc1ccccc1)*
metric-name: IC50 (nM)
Numbers only here, please. The scale is nM.

Solved entries:
Cbz-Ala-Ala-[AAsn]-{(S,S)‑EP-CON(CH3)CH2Ph} (reading uncertain; also: printed as Cbz-Ala-Ala-AAsn-(S, S)-EP-CON(CH3)CH2Ph) [Cbz-Ala-Ala-AAsn-(S, S)-EP-CON(CH3)CH2Ph]    63
Cbz-Ala-Ala-[AAsn]-{(S,S)‑EP-CON(nBu)2} (reading uncertain; also: printed as Cbz-Ala-Ala-AAsn-(S, S)-EP-CON(nBu)2) [Cbz-Ala-Ala-AAsn-(S, S)-EP-CON(nBu)2]    68
Cbz-Ala-Ala-[AAsn]-{(S,S)‑EP-COOCH2Ph} (reading uncertain; also: printed as Cbz-Ala-Ala-AAsn-(S, S)-EP-COOCH2Ph) [Cbz-Ala-Ala-AAsn-(S, S)-EP-COOCH2Ph]    47

Exercise: Dear colleague, I am looking for the recorded IC50 of the following binder: Cbz-Ala-Ala-[azaAsn]-{(2R,3R)‑EP‑COOEt} [Cbz-Ala-Ala-AAsn-(2R, 3R)-EP-COOEt]
Key: 788
